System: Aspergillus oryzae
Test: Antifungal activity against Aspergillus oryzae assessed as fungal growth inhibition at 100 ug/ml by micro-dilution method relative to control
Type: functional
Conditions: read-out: GI
Kind request: treat 10% as inclusive, so inhibition of growth at 100 µg/mL at 10% or higher is T, anything lower is F.

> print(dat)
                                    compound  discrete.label
 1  O=C1CC[C@@H](C(=O)N/N=C/c2ccc([N+](=O)[O-])cc2)N1               F
 2     O=C1CC[C@@H](C(=O)N/N=C/CCc2ccccc2)N1               F
 3   O=C1CC[C@@H](C(=O)N/N=C/c2ccc(Br)cc2)N1               T
 4  O=C1CC[C@@H](C(=O)N/N=C/c2c(F)c(F)c(F)c(F)c2F)N1               F
 5  COc1cc(/C=N/NC(=O)[C@@H]2CCC(=O)N2)ccc1O               F
 6    Cc1ccc(/C=N/NC(=O)[C@@H]2CCC(=O)N2)cc1               T
 7  O=C1CC[C@@H](C(=O)N/N=C/c2ccc(C(F)(F)F)cc2)N1               F
 8  O=C1CC[C@@H](C(=O)N/N=C/c2c(Cl)cccc2Cl)N1               T
 9  O=C1CC[C@@H](C(=O)N/N=C/c2ccccc2[N+](=O)[O-])N1               T
10  O=C1CCC(NNc2ccc(C(F)(F)F)cc2)N1 (racemic)               T
11           O=C1CCC(NNc2ccccc2)N1 (racemic)               T
